meta.source: the supplement of paper PMC6755084

B1: F1*; the commonest letter at each place (parent)
chain: GAGACCGCAACTGAAAAGTTGTTATCACTTGTCGTAAGACACTTTGGATGGGTTGAAGTTCTGCACGTAGAAGCAAAAGGC

variants of: B1; test: fraction ligated after 30 min (ligated reads / total reads); higher = more ligase activity; conditions: with F1*sub RNA substrate (template-directed ligation), 42 °C
Measured fraction ligated of individual entries
Enter the number alone.

>>> observed_result("GAGACCGCAACTGAAAAGTTGTTATCACTTGGCGTAAGACACTTAGGATGGGTTGAAGTTCTGCACGTAGAAGCAAAAGGC [T32G T45A]")
0.748
>>> observed_result("GAGACCGCAACTGAAAAGTTGTTAGCACTTGTCGTAGGACACTTTGGATGGGTTGAAGTTCTGCACGTAGAAGCAAAAGGC [T25G A37G]")
0.806
>>> observed_result("GAGACCGCAACTGAAAAGTTGTTATCACTTGTCGTAAGACAGTTTGGATGGGTTGACGTTCTGCACGTAGAAGCAAAAGGC [C42G A57C]")
0.818
>>> observed_result("GAGACCGCAACTGAAAAGTTGTTATCACTTCTCATAAGACACTTTGGATGGGTTGAAGTTCTGCACGTAGAAGCAAAAGGC [G31C G34A]")
0.78
>>> observed_result("GAGACCGCAACTGAAAAGTTGTCATCACTGGTCGTAAGACACTTTGGATGGGTTGAAGTTCTGCACGTAGAAGCAAAAGGC [T23C T30G]")
0.833

Any idea what its fraction ligated is? The variant is GAGACCGCAACTGAAAAGTTGTTATCACTTGTCGTAAGACACTTTGTATGGGTTGGAGTTCTGCACGTAGAAGCAAAAGGC [G47T A56G]
0.0352

Any idea what its fraction ligated is? The variant is GAGACCGCAACTGAAAAGTTGTTATCATCTGTCGTAAGACACTTTGGATGGGTTGAAGTTCTGCACGTAGAAGCAAAAGGC [C28T T29C]
0.789

Any idea what its fraction ligated is? The variant is GAGACCGCAACTGAAAAGTTGTTATCACTTGTCGTAAGACTCTTGGGATGGGTTGAAGTTCTGCACGTAGAAGCAAAAGGC [A41T T45G]
0.283

Any idea what its fraction ligated is? The variant is GAGACCGCAACTGAAAAGTTGTTATCACTTGGCGTAAGACACTTTGGAGGGGTTGAAGTTCTGCACGTAGAAGCAAAAGGC [T32G T49G]
0.669

Any idea what its fraction ligated is? The variant is GAGACCGCAACTGAAAAGTTGTTATCACTAGTCGTAAGACACTTTGGAAGGGTTGAAGTTCTGCACGTAGAAGCAAAAGGC [T30A T49A]
0.694

Any idea what its fraction ligated is? The variant is GAGACCGCAACTGAAAAGTTGTTATCACTTGTCGTAAGACACTTTGGGCGGGTTGAAGTTCTGCACGTAGAAGCAAAAGGC [A48G T49C]
0.504

Any idea what its fraction ligated is? The variant is GAGACCGCAACTGAAAAGTTGTTTTCACTTGTCGTAAGATACTTTGGATGGGTTGAAGTTCTGCACGTAGAAGCAAAAGGC [A24T C40T]
0.769

Any idea what its fraction ligated is? The variant is GAGACCGCAACTGAAAAGTTGTTATCACTTGTCGTAAGACACTTTTGATGGGTTAAAGTTCTGCACGTAGAAGCAAAAGGC [G46T G55A]
0.726

Any idea what its fraction ligated is? The variant is GAGACCGCAACTGAAAAGTTGTTATCAGTTGTCGTAAGACACTTTGGATGGGTTGAGGTTCTGCACGTAGAAGCAAAAGGC [C28G A57G]
0.791

Any idea what its fraction ligated is? The variant is GAGACCGCAACTGAAAAGTTGTTATCGCTTGACGTAAGACACTTTGGATGGGTTGAAGTTCTGCACGTAGAAGCAAAAGGC [A27G T32A]
0.795

Any idea what its fraction ligated is? The variant is GAGACCGCAACTGAAAAGTTGTTATCACTTGTCGTAAGACACGTTGGATAGGTTGAAGTTCTGCACGTAGAAGCAAAAGGC [T43G G50A]
0.311

Any idea what its fraction ligated is? The variant is GAGACCGCAACTGAAAAGTTGTTATCACTTGTCGGAAGACACTTTGGATCGGTTGAAGTTCTGCACGTAGAAGCAAAAGGC [T35G G50C]
0.486

Any idea what its fraction ligated is? The variant is GAGACCGCAACTGAAAAGTTGTTATCTCTTGTCGTAAGACACTTTGGATGGGTTGATGTTCTGCACGTAGAAGCAAAAGGC [A27T A57T]
0.804

Any idea what its fraction ligated is? The variant is GAGACCGCAACTGAAAAGTTGTTATCACTTGTCGTAAGACACTTTGGATGGCTTGAAGTTCTGCACGTAGAAGCAAAAGGC [G52C]
0.726

Any idea what its fraction ligated is? The variant is GAGACCGCAACTGAAAAGTTGTTATCAATTGTCGTAAGACACGTTGGATGGGTTGAAGTTCTGCACGTAGAAGCAAAAGGC [C28A T43G]
0.812

Any idea what its fraction ligated is? The variant is GAGACCGCAACTGAAAAGTTGTTATCACTGGTCGTAAGACATTTTGGATGGGTTGAAGTTCTGCACGTAGAAGCAAAAGGC [T30G C42T]
0.817
